Measured on: recombinant human DPPI (Cathepsin C) (Homo sapiens (Human), UniProt P53634)
Sequence (P53634 231-394): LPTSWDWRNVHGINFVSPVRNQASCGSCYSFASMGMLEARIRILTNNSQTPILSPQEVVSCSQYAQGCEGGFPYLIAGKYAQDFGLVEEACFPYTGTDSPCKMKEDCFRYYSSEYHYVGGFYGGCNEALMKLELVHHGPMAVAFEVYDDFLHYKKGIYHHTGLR
Sequence (P53634 395-463): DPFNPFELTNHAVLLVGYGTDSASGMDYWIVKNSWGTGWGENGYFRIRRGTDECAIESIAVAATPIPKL
Sequence (P53634 25-134): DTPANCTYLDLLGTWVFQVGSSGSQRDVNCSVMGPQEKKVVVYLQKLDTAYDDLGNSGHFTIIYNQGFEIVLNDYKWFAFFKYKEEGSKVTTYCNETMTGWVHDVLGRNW
Run description: Inhibition of human DPPI (Cathepsin C)
Setup conditions: substrate Gly-Arg-AMC
Assay readout: IC50 (nM)
Just the number please, in nM, no unit attached.

Please review the following examples before continuing.
CS(=O)(=Nc1cccc(-c2ccc(C[C@@H](C#N)NC(=O)[C@H]3N[C@@H]4CC[C@H]3C4)c(F)c2)c1)C1CCOCC1 (stereo partly drawn)    17
CS(=O)(=O)c1ccc(-c2ccc(CC(C#N)NC(=O)[C@H]3N[C@@H]4CC[C@H]3C4)c(F)c2)cc1 (stereo partly drawn)    8.2

Then this compound:
Query block: // query IC50 value for entry N#CC(Cc1ccc(-c2cccc(C(N)=O)c2)cc1F)NC(=O)[C@H]1N[C@@H]2CC[C@H]1C2 (stereo partly drawn)
Result block: 7.9

----------
Reported IC50 values follow for various compounds
Measured on: recombinant human DPPI (Cathepsin C) (Homo sapiens (Human), UniProt P53634)
Run description: Inhibition of human DPPI (Cathepsin C)
Setup conditions: substrate Gly-Arg-AMC
Report the value in nM with no unit label.

As a guide, the following entries are already answered.
COCCN1C(C)CN(c2ccc(C[C@@H](C#N)NC(=O)[C@H]3N[C@@H]4CC[C@H]3C4)c(F)c2)CC1C (stereo partly shown)    11.2
COCCN1CCN(C(=O)c2cc(-c3ccc(C[C@@H](C#N)NC(=O)[C@H]4N[C@@H]5CC[C@H]4C5)c(F)c3)cs2)CC1    1.6
CC(=O)N1CCN(C(=O)c2cc(-c3ccc(C[C@@H](C#N)NC(=O)[C@H]4N[C@@H]5CC[C@H]4C5)c(F)c3)cs2)CC1    2.2

Query block: Report IC50 for COC(=O)c1cccc2c1[nH]c(=O)c1cc(CC(C#N)NC(=O)[C@H]3N[C@@H]4CC[C@H]3C4)ccc12 (stereo partly shown) please.
Result block: 9.9

Query block: Then what about the compound "Cn1cc2ccc(-c3ccc(C[C@@H](C#N)NC(=O)[C@H]4N[C@H]5C[C@@H]4[C@@H]4C[C@@H]45)c(F)c3)cc2n1" ?
Result block: 286

Query block: Same question, "N#C[C@H](Cc1ccc(-n2cc(COC(=O)N3CCCC3)nn2)cc1F)NC(=O)[C@H]1N[C@@H]2CC[C@H]1C2" this time
Result block: 25.9

Query block: Another compound to check: "Cc1cn(C)c(-c2ccc(C[C@@H](C#N)NC(=O)[C@H]3N[C@@H]4CC[C@H]3C4)c(F)c2)n1"
Result block: 29.8

Query block: // query: "CS(=O)(=O)c1cc(-c2ccc(C[C@@H](C#N)NC(=O)[C@H]3N[C@H]4CC[C@@H]3C4)c(F)c2)ccc1C#N"
Result block: 815

Query block: What do we get for "CC(C)N1CCC(c2ccc(C[C@@H](C#N)NC(=O)[C@H]3N[C@@H]4CC[C@H]3C4)c(F)c2)CC1" ?
Result block: 21.2

Query block: Entry to check: "CN1CCN(S(=O)(=O)c2cccc(-c3ccc(C[C@@H](C#N)NC(=O)[C@H]4N[C@@H]5CC[C@H]4C5)c(F)c3)c2)CC1"
Result block: 1.2

Query block: Next compound up: "N#C[C@H](Cc1ccc(-c2csc(C(=O)NC3CCOCC3)c2)cc1F)NC(=O)[C@H]1N[C@@H]2CC[C@H]1C2"
Result block: 4.7

Query block: Then this compound: "N#C[C@H](Cc1ccc(-c2ccc(C(=O)N3CCOCC3)o2)cc1F)NC(=O)[C@H]1N[C@@H]2CC[C@H]1C2"
Result block: 2.3

Query block: Next entry: "CC(=O)NCCn1cc(-c2ccc(C[C@@H](C#N)NC(=O)[C@H]3N[C@@H]4CC[C@H]3C4)c(F)c2)cn1"
Result block: 4.8
